- assay_overview: Liver microsome half-life assay, rat
- Assay type: in vitro ADME
- condition_info: liver microsomes, 1 mg/mL liver microsomal protein, 37° C., read-out: Liver microsome T½ (min) Rat
measured_metric: half-life (min)

                                   compound  measured_metric  endpoint_value
0  O=C(c1ccc(F)cc1C(F)(F)F)c1cnc2n1CCN(c1cn[nH]c(=O)c1Cl)C2        half-life             174

1: O=c1[nH]ncc(N2CCc3c(ncn3Cc3ccccc3C(F)(F)F)C2)c1Cl [Compound C001, reference compound]
2: O=c1[nH]ncc(N2CCn3c(Cc4ccccc4C(F)(F)F)cnc3C2)c1Cl
3: O=c1[nH]ncc(N2CCc3c(ncn3Cc3ccc(F)cc3C(F)(F)F)C2)c1Cl [Compound C002, reference compound]
**Q:** Parameters: sort_field (half-life), sort_dir (desc). List labels; respect the requested ordering.
**A:** 3, 2, 1
(3: 34 min, 2: 20 min, 1: 5 min)
